- target.desc: Estrogen Receptor β (Homo sapiens)
- Sequence (Q92731 whole entry): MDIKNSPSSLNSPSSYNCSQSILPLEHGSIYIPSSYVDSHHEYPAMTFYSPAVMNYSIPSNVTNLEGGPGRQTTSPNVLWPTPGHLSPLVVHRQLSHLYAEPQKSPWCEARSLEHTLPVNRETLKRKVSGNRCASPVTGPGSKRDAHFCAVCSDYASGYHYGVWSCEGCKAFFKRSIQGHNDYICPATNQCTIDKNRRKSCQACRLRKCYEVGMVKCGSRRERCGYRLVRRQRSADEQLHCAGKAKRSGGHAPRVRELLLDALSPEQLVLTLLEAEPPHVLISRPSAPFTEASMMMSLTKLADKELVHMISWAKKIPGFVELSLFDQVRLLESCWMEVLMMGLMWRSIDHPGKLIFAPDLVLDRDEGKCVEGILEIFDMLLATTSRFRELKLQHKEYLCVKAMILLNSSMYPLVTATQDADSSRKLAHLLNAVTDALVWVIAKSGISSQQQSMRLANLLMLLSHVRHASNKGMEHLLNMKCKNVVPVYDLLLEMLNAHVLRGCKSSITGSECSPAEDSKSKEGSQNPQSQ
- procedure.summary: Target selectivity counterscreen, Estrogen Receptor β reporter assay
- measurement.parameters: receptor agonist at ~EC80
For each record, write down the corresponding pIC50.
One number for each entry, as −log10 of the molar value.

INSERT INTO measurements (molecule, result_value) VALUES
  ('CCn1c(CCCc2ccc(-c3cccc(CC(=O)O)c3)cc2)nn(Cc2ccccc2)c1=O [Example 23]', 4.76);

# next molecule below
For the molecule CCn1c(CCCc2ccc(-c3ccc(NS(=O)(=O)c4ccccc4)cn3)cc2)nn(Cc2ccc(C(C)(C)C)cc2)c1=O [Example 10] , what pIC50 is on record?
4.94

====

- target.desc: Human PPARα (Homo sapiens)
- Construct: host or cells: proprietary non-human mammalian cells
- Sequence (Q07869 whole entry): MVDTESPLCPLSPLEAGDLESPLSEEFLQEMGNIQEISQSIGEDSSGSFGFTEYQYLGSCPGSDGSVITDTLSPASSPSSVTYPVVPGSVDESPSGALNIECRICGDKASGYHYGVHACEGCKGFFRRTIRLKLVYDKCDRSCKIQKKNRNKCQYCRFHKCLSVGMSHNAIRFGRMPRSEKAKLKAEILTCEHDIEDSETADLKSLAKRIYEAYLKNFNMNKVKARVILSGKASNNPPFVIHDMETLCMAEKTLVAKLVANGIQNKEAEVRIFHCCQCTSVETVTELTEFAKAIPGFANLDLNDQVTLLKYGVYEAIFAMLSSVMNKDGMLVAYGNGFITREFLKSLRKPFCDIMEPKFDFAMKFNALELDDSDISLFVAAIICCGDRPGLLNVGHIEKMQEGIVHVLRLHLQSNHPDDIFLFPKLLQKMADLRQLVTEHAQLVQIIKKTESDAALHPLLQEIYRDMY
- procedure.summary: Human PPARα Reporter Assay (luciferase)
- Type: cell-based
- measurement.parameters: human PPARα reporter cells, overnight incubation, antagonism; read-out: Luciferase IC50
pIC50: −log10 of the molar value.
// Condition not met strictly below 7 in pIC50; Condition met otherwise

Before answering, review these 5 worked examples.
INSERT INTO measurements (smi, category) VALUES
  ('CCn1c(CCCc2ccc(-c3ccc(OC)c(CNS(=O)(=O)c4ccccc4)c3)cc2)nn(Cc2ccc(C(C)(C)C)cc2)c1=O', 'Condition not met'),
  ('CC(C)n1c(CCCc2ccc(-c3cccc(CC(=O)O)c3)cc2)nn(Cc2ccc(C(C)(C)C)cc2)c1=O', 'Condition not met'),
  ('CCCc1ccc(S(=O)(=O)Nc2cccc(-c3ccc(CCCc4nn(Cc5ccc(C(C)(C)C)cc5)c(=O)n4CC)cc3)n2)cc1', 'Condition not met'),
  ('CCn1c(CCCc2ccc(-c3cnc(NS(=O)(=O)c4ccccc4)cn3)cc2)nn(Cc2ccc(C(C)(C)C)cc2)c1=O', 'Condition not met'),
  ('CCn1c(CCCc2ccc(-c3cnc(C4(F)COC4)nc3)cc2)nn(Cc2ccc(C(C)(C)C)cc2)c1=O', 'Condition met');

Threshold query (pIC50 >= 7) on CCSc1ccc(-c2ccc(CCCc3nn(Cc4ccc(C(C)(C)C)cc4)c(=O)n3CC)cc2)cc1CC(=O)O
Condition met

Threshold query (pIC50 >= 7) on CCn1c(COCc2ccc(-c3cccc(CC(=O)O)c3)cc2)nn(Cc2ccc(C(C)(C)C)cc2)c1=O
Condition not met

Threshold query (pIC50 >= 7) on CCn1c(CCCc2ccc(-c3ccc(OC(F)F)c(C(=O)O)c3)cc2)nn(Cc2ccc(C(C)(C)C)cc2)c1=O
Condition met

Threshold query (pIC50 >= 7) on CCn1c(CCCc2ccc(-c3ccc(NS(=O)(=O)c4ccccc4)c(C)n3)cc2)nn(Cc2ccc(C(C)(C)C)cc2)c1=O
Condition not met

Threshold query (pIC50 >= 7) on CCC(=O)NS(=O)(=O)c1cccc(-c2ccc(CCCc3nn(Cc4ccc(C(C)(C)C)cc4)c(=O)n3CC)cc2)c1
Condition not met

Threshold query (pIC50 >= 7) on CCn1c(CCCc2ccc(-c3cccc(NS(=O)(=O)c4ccc(OC)cc4)n3)cc2)nn(Cc2ccc(C(C)(C)C)cc2)c1=O
Condition not met

Threshold query (pIC50 >= 7) on CCn1c(CCCc2ccc(-c3ccc(CS(=O)(=O)NCc4ccccc4)cc3)cc2)nn(Cc2ccc(C(C)(C)C)cc2)c1=O
Condition not met

Threshold query (pIC50 >= 7) on CCn1c(CCCc2ccc(-c3cccc(CN)c3)cc2)nn(Cc2ccc(C(C)(C)C)cc2)c1=O
Condition not met
